Provenance of the data: patent US12018066

Listed here are binders together with their documented pKd.
# assayed system: SARS-CoV-2 spike protein receptor binding domain (RBD2) (SARS-CoV-2, UniProt P0DTC2 319-537)
# assay procedure: SPR, immobilized antibody, RBD injected, 1:1 fit
pKd: −log10 of the molar value.

{"binder": "R09 minibody (scFv-Fc) (Fc fusion) QPGLTQPPSVSVSPGQTASITCSGDKLGYKYVSWYQQKPGQSPVLVIYEDTKRPSGIPKRFSGSNSGNTATLTICGTQAVDEADYYCQAWDSSVVFGGGTKLTVLSGGSTITSYNVYDTKLSSSGTQVQLVQSGAEVKKPGASVKVSCKASGYTFTSYGISWVRQAPGQGLEWMGWISAYNGNTNYAQKFQGRVTMTTDTSTSTAYMELRSLRSDDTAVYYCARDMELRPPFDYWGQGTLVTVSS", "pKd": 6.27}
{"binder": "H05 IgG1 (antibody, V domains shown, also called H5; HO5) VH: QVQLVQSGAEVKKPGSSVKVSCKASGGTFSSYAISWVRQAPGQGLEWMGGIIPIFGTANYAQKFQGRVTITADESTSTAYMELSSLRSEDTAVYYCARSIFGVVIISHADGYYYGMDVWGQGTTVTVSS VL: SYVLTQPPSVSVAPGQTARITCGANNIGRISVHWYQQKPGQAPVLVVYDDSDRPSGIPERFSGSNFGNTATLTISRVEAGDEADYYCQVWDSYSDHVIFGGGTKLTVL", "pKd": 7.29}
{"binder": "G07 IgG1 (antibody, V domains shown) VH: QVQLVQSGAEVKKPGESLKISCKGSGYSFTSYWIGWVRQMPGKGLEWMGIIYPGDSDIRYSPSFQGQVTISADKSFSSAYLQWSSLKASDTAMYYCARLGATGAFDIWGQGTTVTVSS VL: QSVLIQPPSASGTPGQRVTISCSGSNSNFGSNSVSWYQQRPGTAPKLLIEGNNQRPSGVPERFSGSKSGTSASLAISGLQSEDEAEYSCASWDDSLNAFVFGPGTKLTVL", "pKd": 6.49}
{"binder": "F07 IgG1 (antibody, V domains shown) VH: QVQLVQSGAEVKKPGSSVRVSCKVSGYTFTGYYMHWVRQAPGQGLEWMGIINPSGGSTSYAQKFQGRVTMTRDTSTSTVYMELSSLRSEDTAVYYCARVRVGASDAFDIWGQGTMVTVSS VL: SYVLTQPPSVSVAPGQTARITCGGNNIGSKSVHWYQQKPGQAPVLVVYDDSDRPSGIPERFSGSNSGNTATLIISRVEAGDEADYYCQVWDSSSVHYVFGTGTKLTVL", "pKd": 6.52}
{"binder": "R04 IgG1 (antibody, V domains shown) VH: QVQLQQSGPGLVKSSQTLSLTCAISGDSVSSNGAAWHWIRQSPSRGLEWLGRTYYRSGWYNDYAVSVKSRITINQDTSKNQFSLQLNSVTPEDTAVYFCAREGGGGRMDVWSQGTTVTVSS VL: EIVMTQSPSSLSASVGDRVTITCQASQDISNYLNWCQQKPGKAPKLLIYDASNLETGVPSRFSGSGSGTGFTFTISSLQPEDFATYYCQQSYSTPYTFGQGTKVEIK", "pKd": 3.72}
